Reported MIC for target or system Corynebacterium pyogenes CY1, by entry.

See these solved cases before continuing.
Data request: Give the measured MIC for C/C(=C\C(=O)OC(C)c1ccc(C#N)cc1)CC1OCC(CC2OC2C(C)C(C)O)C(O)C1O (stereo not drawn) [Example 4, 1-(p-Cyanophenyl)ethyl monate A]
Data returned: > 80 µg/mL

Data request: Write down MIC measured for item C/C(=C\C(=O)OCc1cccc(C#N)c1)CC1OCC(C/C=C/C(C)C(C)O)C(O)C1O (stereo not drawn) [Example 5, m-Cyanobenzyl monate C]
Data returned: > 80 µg/mL

---
Data request: Note down MIC recorded for C/C(=C\C(=O)OCc1cc(C#N)cc(C#N)c1)CC1OCC(CC2OC2C(C)C(C)O)C(O)C1O (stereo not drawn) [Example 6, 3,5-Dicyanobenzyl monate A]
Data returned: > 80 µg/mL

---

Overview of recorded MIC for various compounds
- Tested on: Bacillus subtilis 6633
- ASSAY_SUMMARY: Human bacteria MIC
- Format: cell-based
- EXPERIMENTAL_PARAMETERS: nutrient agar with 5% chocolated horse blood, 18 hours at 37°C
Give the quantity in µg/mL, number only.

Past entries and their recorded results:
Data request: Name the recorded MIC of the item C/C(=C\C(=O)OCc1ccc(C#N)cc1)CC1OCC(CC2OC2C(C)C(C)O)C(O)C1O (stereo not drawn) [Example 3, p-Cyanobenzyl monate A] in your answer.
Data returned: 0.1

Data request: Return reported MIC. Input compound: C/C(=C\C(=O)OCc1cccc(C#N)c1)CC1OCC(C/C=C/C(C)C(C)O)C(O)C1O (stereo not drawn) [Example 5, m-Cyanobenzyl monate C]
Data returned: 2.5

Data request: Answer with the recorded MIC for the compound listed here: C/C(=C\C(=O)OC(C)c1ccc(C#N)cc1)CC1OCC(CC2OC2C(C)C(C)O)C(O)C1O (stereo not drawn) [Example 4, 1-(p-Cyanophenyl)ethyl monate A]
Data returned: 1

---
Data request: For C/C(=C\C(=O)OCc1cc(C#N)cc(C#N)c1)CC1OCC(CC2OC2C(C)C(C)O)C(O)C1O (stereo not drawn) [Example 6, 3,5-Dicyanobenzyl monate A] , write its MIC.
Data returned: 2.5

Data request: Note down MIC recorded for C/C(=C\C(=O)OCc1ccccc1C#N)CC1OCC(CC2OC2C(C)C(C)O)C(O)C1O (stereo not drawn) [Example 1, o-Cyanobenzyl monate A]
Data returned: 2.5

Data request: Find the measured MIC of C/C(=C\C(=O)OCc1cccc(C#N)c1)CC1OCC(CC2OC2C(C)C(C)O)C(O)C1O (stereo not drawn) [Example 2, m-Cyanobenzyl monate A] and report it.
Data returned: 0.5

---

- Test system: M. hyorhinis ATCC 25021
- ASSAY_SUMMARY: Anti-mycoplasmal in vitro MIC
- Format: cell-based
- EXPERIMENTAL_PARAMETERS: Mesomycoplasma hyorhinis, ATCC25021, 144 h, Friis broth solidified with 0.9% agarose, 6 days incubation at 37°C
PROPERTY: MIC (µg/mL)
Write it as a number; the unit µg/mL goes unstated.

// solved cases for MIC follow
Data request: Name the recorded MIC of the item C/C(=C\C(=O)OCc1ccc(C#N)cc1)CC1OCC(CC2OC2C(C)C(C)O)C(O)C1O (stereo not drawn) [Example 3, p-Cyanobenzyl monate A] in your answer.
Data returned: 0.1

Data request: Give the value of MIC reported for the following: C/C(=C\C(=O)OCc1cccc(C#N)c1)CC1OCC(CC2OC2C(C)C(C)O)C(O)C1O (stereo not drawn) [Example 2, m-Cyanobenzyl monate A]
Data returned: 0.025

Data request: Specify measured MIC for C/C(=C\C(=O)OCc1ccccc1C#N)CC1OCC(CC2OC2C(C)C(C)O)C(O)C1O (stereo not drawn) [Example 1, o-Cyanobenzyl monate A] .
Data returned: 0.5

Data request: Answer with reported MIC of C/C(=C\C(=O)OCc1cccc(C#N)c1)CC1OCC(C/C=C/C(C)C(C)O)C(O)C1O (stereo not drawn) [Example 5, m-Cyanobenzyl monate C]
Data returned: 0.5

Data request: Indicate its recorded MIC; the compound in question is C/C(=C\C(=O)OC(C)c1ccc(C#N)cc1)CC1OCC(CC2OC2C(C)C(C)O)C(O)C1O (stereo not drawn) [Example 4, 1-(p-Cyanophenyl)ethyl monate A]
Data returned: 0.5

Next compound, please.
Data request: Supply MIC value. Item: C/C(=C\C(=O)OCc1cc(C#N)cc(C#N)c1)CC1OCC(CC2OC2C(C)C(C)O)C(O)C1O (stereo not drawn) [Example 6, 3,5-Dicyanobenzyl monate A]
Data returned: 0.05
